- PROTOCOL: yeast display, Sf9 membrane polyspecificity reagent, FACS + sequencing; frameworks hold sequencing errors
MEASUREMENT LABEL: polyreactivity (PSR sort gate)

Worked examples follow.
- SEQ TEXT: "QVQLVESGGGLVQAGGSLRLSCAASGSIFEVNAMGWYRQAPGKERELVAAISFSGDSTYYADSVKGRFTISRDNAKNTVYLQMNSLKPEDTAVYYCAAEQYVAWIDYLYDYWGQGTQVTVSS"
  polyreactivity (PSR sort gate): "high polyreactivity"
- SEQ TEXT: "QVQLVESGGGLVQAGGSLRLSCAASGYTFGKYVMGWYRQAPGKERELVAAISKSGSGTYYADSVKGRFTISRDNAKNTVYFQMNSLKPEDTAVYYFAARGYGFPELDYWGQGTQVTVSS"
  polyreactivity (PSR sort gate): "high polyreactivity"
- SEQ TEXT: "QVQLVESGGGLVQAGGSLRLSCAASGRISPNNAMGWYRQAPGKERELVAAITASGGTTYYADSVKGRFTISRDNAKNTVYLQMNSLKPEDTAVYYCAAAVWYRGWYRYDYWGQGTQVTVSS"
  polyreactivity (PSR sort gate): "low polyreactivity"
- SEQ TEXT: "QVQLVESGGGLVQAGGSLRLTCAASGRIFDRYVMGWYRQAPGKERELVAAITFSGGRTYYADSVKGRFTISRDNAKNTVYLQMNSLKPEDTAVYYCNRVYYQKIYDYWGQGTQVTVSS"
  polyreactivity (PSR sort gate): "high polyreactivity"
- SEQ TEXT: "QVQLVESGGGLVQAGGSLRLSCAASGSIYYWYTMGWYRQAPGKERELVAAISLSDGRTYYADSVKGRFTISRDNAKNTVYLQMNSLKPEDTAVYYCAADYRDASGYYRYDYWGQGTQVTVSS"
  polyreactivity (PSR sort gate): "low polyreactivity"

Next up:
Find the recorded polyreactivity (PSR sort gate) belonging to QVQVVESGGGLVQAGGSLRLSCAASGSILGLYAMGWYRQAPGKERELVAAITYRGGRTDYADSVKGRFTISRDNAKNTVYLQMNCLKPEDTAVYYCAAGYLPRPRYSTSYLYYYWGQGTQVTVSS and report it. high polyreactivity

* * *

- PROTOCOL: yeast display, Sf9 membrane polyspecificity reagent, FACS + sequencing; frameworks hold sequencing errors
MEASUREMENT LABEL: polyreactivity (PSR sort gate)

Before answering, review these 5 worked examples.
- SEQ TEXT: "QVQLVESGGGLVQAGGSLRLSCAASGSTFTTYAMGWYRQAPGKESELVAAITWSVGSTYYADSVMGRFTISRDNAKNTVYLQMNSLKPEDTAVYYCAADPTGGVGFDGYYWGQGTQVTVSS"
  polyreactivity (PSR sort gate): "low polyreactivity"
- SEQ TEXT: "QVHLVESGGGLVQAGGSLRLSCAASGSIFGSYAMGWYRQAPGKERELVAAITIADITYYADSVKGRFTISRDNAKNTVNLQMNSLKPEDTAVYYCNAYWGWRDSWYYYWGQGTQVTVSS"
  polyreactivity (PSR sort gate): "low polyreactivity"
- SEQ TEXT: "QVQLVESGGGLVQAGGSLRFSCAASGSILSKNAMGWYRQAPGKERELVAAISSGGSTYYADSVKGRFTISRDKAKNTVYLQLNSLKPEDTAVYYCATYCTSVAYHLYYWGQGTQVTVSS"
  polyreactivity (PSR sort gate): "low polyreactivity"
- SEQ TEXT: "QVQLVESGGGLVQAGGSLRLSCAASGRTFNYYAMGWYRQAPGKERELVAAITSGSTTYYADSVKGRFTISRDNAKNTVYLQMNSLKPEDTAVYYCATAWRPADNSWGQGTQVTVSS"
  polyreactivity (PSR sort gate): "low polyreactivity"
- SEQ TEXT: "QVQLVESGGGLVQAGGSLRLSCAASGRTFWFYGMGWYRQAPGKEREFVARISASGGSTYYADSVKGRYTISRDNAKNTVYLQMNSLKPEDTAVYYCARDTPWRYYYWGQGTQVTVSS"
  polyreactivity (PSR sort gate): "high polyreactivity"

Entry under review: QDQLEESGGGLVQEGGSLRLSCAASGFTFRGYAMGWYRQAPGKERELVAAISYSGGSTYYADSVKGRFTISRDNAMNSVYLQMNSLKPEDTAVYFCAARGGGKVRHRGTYDYWGQGTQVTVSS . Reported polyreactivity (PSR sort gate)? high polyreactivity

Follow-up entry: QVQLVESGGGLVQAGGSLRLSCAASGRIFSYNAMGWYRQAPGKERELFAAISSDGSTYYADSVKGRFTISRDNAKNTVYLEMNSLKPEDTAVYYCAARQVVWFVYTTAQVGSYKVNYWGQGTQVNVSS low polyreactivity

Then what about the sequence QVQLVESGGGLVQAGGSLRLSCAASGRTFRLYAMGWYRQAPGKERELDAAIRTDDSTNYADSVKGRFTISRDNAKNTVYLQMNSLKPEDTAVYYCNAEGQFTWLGRRRHKFEYWGQGTQVTVSS ? low polyreactivity

// next record QVQLVESGGGLVQAGGSLRLSCSASGSIFGSYAMGGYRQEPGNERELVAAISWRGGNTYYADSVKGRFTISRDNAKNTVYLQMNSLSPEDTAVYYCAAVAYSYGSYRRYYYWGLGTQVTVSS high polyreactivity

* * *

- PROTOCOL: yeast display, Sf9 membrane polyspecificity reagent, FACS + sequencing; frameworks hold sequencing errors
MEASUREMENT LABEL: polyreactivity (PSR sort gate)

- SEQ TEXT: "QVQLVESGGGLVQAGGSLRLSCAATGFTFTLYAMGWYRQAPGKERALVAAITRLGTSTYYADSVKGRFTISRDNAKNTVYLQMNNLKPEDTAVYYCAARGGGGQRYDYWGHGTQVTVSS"
  MEASUREMENT LABEL: "polyreactivity (PSR sort gate)"
  MEASURED: "high polyreactivity"
- SEQ TEXT: "QVQLVESGGGLVQAGGSHRLSCAASGSTFLRYAMGWYRQAPGKERELVAAITASGGSTYYADSVKGRFTISRDNAKNTVYLQMNCLKAEDTAVYYCAADGRFIGKNSHDLWIYGYYYWGQGTQVTVSS"
  MEASUREMENT LABEL: "polyreactivity (PSR sort gate)"
  MEASURED: "low polyreactivity"
- SEQ TEXT: "QVQLVESGGGLVQAGGSLRLSCAASGSIFFSNAMGRYRQAPGKERELVAGIRSGGITNYADSVKGRFTISRDNAKNTVYLQMNSLKPEDTAVYYCNADLAPSTPYFYYFPVRRDYWGQGTQVTVSS"
  MEASUREMENT LABEL: "polyreactivity (PSR sort gate)"
  MEASURED: "low polyreactivity"
- SEQ TEXT: "HVQLQESGGGLVQAGGSLRLSCAASGSIFQATYMGWYRPAPGKEREFVASITYGSITNYADSVKGRFTIGRDNAKDTLYLQMNSLKPEDTAVYYCAAVGRRRTTVGRYVRMDYWGQGTQVTVSS"
  MEASUREMENT LABEL: "polyreactivity (PSR sort gate)"
  MEASURED: "low polyreactivity"

Consider the sequence QVQLVESGGGIVQAGGSLRLSCAASGFTYWFYAMGWYRQAPGKERELVAAISRGGSTYYADSVKGRFTFSRDKAKNTVYLQMNSLKPEDTAVYYCAADFVHRGYYYWGQGTQVTVSS and give its measured polyreactivity (PSR sort gate). high polyreactivity

Quick one: QVQLVESGGGLVQAGGSLRLSCAASGYPFGYYGKGWYRQAPGKERELVAAISRSGGGSTYYADSVKGRFTISRENAKYTVYLQINSLKPEDTAVYYCNVSPGVWRSIPLYYNLRYGYWGQGTQVTVSS low polyreactivity

Please answer likewise for QDQLVESGGGLVQAGGSLRLSCAASGSIIDYYDMGWYRQAPGKEREFVAAINWSGGNTHYADSVKGRFTISRDNAKNTVYLQMNSLKPEDTAVYYCAVDVKIGTDFIGVVIPGDYWGQGTQVTVSS low polyreactivity

Also check QGQLVESGGGLVQAGGSLRLSCAAYGSTFYLYPMGRYRQAPGKERELVASISLSGRSTYYADSVKGRFTISRDNAKNTVYLQMNRLKQEDTAVYYCAARRFAYYFQYLGGGYWGQGTQVTVSS high polyreactivity

Same again, this time with QVQLVESGGGLVQAGGSLRLSCAASGRIFFYYAMGWYRQAPGKERELVATISYSGGGTYYADSVKGRFTISRDNAKNTVYLQMNSLKPEDTAVYYCNARWGTPYYIQDFDYWGQGTQVTVSS low polyreactivity

What do you have for QVQLVESGVGLVQAGGSLRLSCAASGRTFFGYAMGWYRQAPGKEREFVARISWRGTSTTYADSVKGRFTISRDNAKNTVYLQMNSLKPEDTAVYYCAASQYGLRVYFTVGYWGQGTQVTVSS ? high polyreactivity

* * *

- PROTOCOL: yeast display, Sf9 membrane polyspecificity reagent, FACS + sequencing; frameworks hold sequencing errors
MEASUREMENT LABEL: polyreactivity (PSR sort gate)

- SEQ TEXT: "QVQLVDSGGALVQAGGSLSLSCAASGGKYDSYAMGWYRQAPGKERELVASISRSGSTNYADSVKGRFTISRDNAMNTVYLQMNSLNPEDTAVYYCAASVRGIRYDYWGQGTQVTVSS"
  MEASURED: "low polyreactivity"
- SEQ TEXT: "QVQLVESGGGLVQAGGSLRLSCAASGSTLTANAMGWYRQAPGKERELVAAISSAGRTYYADSVKGRFTISRDNAKNTVYLQMNSLKPEDTAVYYCAAPYGQLFTQGTWYEYWGQGTQVTVSS"
  MEASURED: "low polyreactivity"
